- TESTED_ON: Torsin-1A (Homo sapiens) (UniProt O14656)
- Sequence (O14656 whole entry, looked up): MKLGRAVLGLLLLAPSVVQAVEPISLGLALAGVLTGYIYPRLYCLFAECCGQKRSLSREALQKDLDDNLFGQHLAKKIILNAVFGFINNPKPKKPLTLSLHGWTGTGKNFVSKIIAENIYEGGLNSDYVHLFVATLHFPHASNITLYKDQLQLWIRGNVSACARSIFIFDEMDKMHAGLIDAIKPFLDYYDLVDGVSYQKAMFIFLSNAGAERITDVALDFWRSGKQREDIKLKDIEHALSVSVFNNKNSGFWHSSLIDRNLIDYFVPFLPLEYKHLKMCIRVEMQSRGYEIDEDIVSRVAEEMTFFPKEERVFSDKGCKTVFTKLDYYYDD
- PROCEDURE_TEXT: small-molecule binders of mutant TOR1A in lysate, primary screen, cell lysate, small-molecule microarray, COS7 lysate, 635/667 nm fluorescence (AID 1150);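 also: score pools 667 nm emission and signal to noise measuring lysate protein binding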
- CONDITION_NOTES: COS7 hTOR1A mutant lysate, 635 nm fluorescence, higher = more signal
Decide by composite z-score: equal to or exceeding 0.07 means t, less means f.

Reference set, count: 3
COc1cc(NN2C(C(O)c3cc(OC)c(OC)c(OC)c3)C=CC3C(=O)N(c4ccccc4)C(=O)C32)cc(OC)c1OC (centres undefined) = t
CC=CC(O)C1C=CC2C(=O)NC(=O)C2N1Nc1ccccn1 (centres undefined) = f
C[C@@]12COC[C@]13C=C(Br)[C@H](C2)[C@@]1(CO1)C3=O = f

State whether the measured composite z-score reaches 0.07, counting equality as reaching it, for COc1ccc(C#Cc2ccc3c(c2)[C@]2(C(=O)N3)[C@H](C(=O)N3CCCCCCC3)[C@H]3C(=O)O[C@H](c4ccccc4)[C@H](c4ccccc4)N3[C@@H]2c2ccc(O)cc2)cc1
t

Is it the case that COCCOC(=O)N1C(=O)[C@@]2(c3cc(C#CCCO)ccc31)[C@H](c1ccccc1OCCO)N1[C@H](c3ccccc3)[C@H](c3ccccc3)OC(=O)[C@H]1[C@@H]2C(=O)N1CCCCCCC1 has composite z-score reaching or exceeding 0.07?
t

Threshold query (composite z-score >= 0.07) on [N-]=[N+]=Nc1ccccc1C[C@@]1(C(=O)O)N=C(c2ccc(OCCCO)cc2)O[C@@H]1c1ccccc1N=[N+]=[N-]
t

Can O=C(NCC(O)CO)[C@@]1(CCS(=O)(=O)c2ccccc2)COC(c2ccc(OCCCO)cc2)=N1 (some centres undefined) be said to have composite z-score at or above 0.07?
t

###

- System: Sam68 (KHDRBS1)
- PROCEDURE_TEXT: Sam68 small-molecule binders, primary screen, biochemical, small-molecule microarray, 635 nm fluorescence (AID 1125);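 also: score merges 667 nm channel intensity with signal to noise over triplicate slides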
- CONDITION_NOTES: small-molecule microarray binding, higher = more signal
In this section we review reported composite z-score values for a set of molecules.
Please respond with just the number, no unit label.

Known results for molecules:
O=C1O[C@H](c2ccccc2)[C@H](c2ccccc2)N2[C@H]1[C@@H](C(=O)N1CCCCCCC1)[C@]1(C(=O)Nc3ccc(C#CC4(O)CCCCCC4)cc31)[C@H]2c1ccccc1OCCO = 1.34
CN(C)C(=O)[C@@]1(Cc2ccccc2N=[N+]=[N-])N=C(c2ccc(OCCCO)cc2)O[C@H]1c1ccccc1 = 1.31
C=CC[C@H](OC(=O)Nc1ccc(SC)cc1)c1ccc(OCCO)cc1 = -1.12

# input molecule: CC(CO)N1C(=O)[C@@H]2[C@H]3C(=O)OCC=C[C@H]3OC23C=CCN(c2ccc(Cl)cc2)C(=O)[C@@H]13 (some centres undefined) ; wanted: its composite z-score
-0.598

###

- Test system: Neuregulin-1 EGF-like domain
- PROCEDURE_TEXT: binders of neuregulin-1 EGF-like domain, primary screen, biochemical, small-molecule microarray, 635 nm fluorescence (AID 1081);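 also: binding of the protein to compounds printed on small-molecule microarray slides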
- CONDITION_NOTES: small-molecule microarray binding, higher = more signal
Label true (1) when composite z-score >= 1; otherwise false (0).

Take a look at these entries with their results.
Cc1ccccc1C(O)C1C=CC2C(=O)NC(=O)C2N1Nc1ccc(Cl)cc1Cl (stereo not given) = true (1)
C=CCNC(=O)[C@H]1[C@@H]2C(=O)O[C@@H](c3ccccc3)[C@@H](c3ccccc3)N2[C@@H](c2ccc(OCCO)cc2)[C@]12C(=O)N(C(=O)OCCOC)c1ccc(C#Cc3ccc(OC)cc3)cc12 = true (1)
CCOC(=O)C=Cc1ccccc1O = false (0)
[N-]=[N+]=Nc1ccccc1C[C@]1(C(=O)NCc2ccccc2)COC(c2ccc(OCCCO)cc2)=N1 = true (1)
[N-]=[N+]=NCc1ccccc1[C@H]1OC(c2ccc(OCCCO)cc2)=N[C@@]1(Cc1ccccc1)C(=O)NCCN1CCOCC1 = true (1)

composite z-score >= 1 for C=C[C@@H](OC)[C@H](OC(=O)Nc1ccc(OC)cc1)c1ccc(OC)c(O)c1 ?
true (1)

Does the reported composite z-score for CCN(CC)c1ccc(N2CC=CC34O[C@@H]5C=CCCOC(=O)C5[C@H]3C(=O)N(CCO)[C@@H]4C2=O)cc1 (stereo not given in full) fall at or above the 1 mark?
true (1)

Threshold query (composite z-score >= 1) on CN1C(=O)[C@@]2(Cc3ccccc3)N=C(c3ccc(OCCCO)cc3)O[C@H]2c2ccccc21
true (1)

API: above_or_equal(metric=composite z-score, cutoff=1) for item CS(=O)(=O)CCOC(=O)C1=CC(CCCO)=CC(C2CC2)N(Cc2cccc(OC(F)(F)F)c2)C=C1C(=O)OCCS(C)(=O)=O (stereo not given)
false (0)

Threshold query (composite z-score >= 1) on COCCOC(=O)N1C(=O)[C@@]2(c3cc(C#Cc4ccc(OC)cc4)ccc31)[C@H](C(=O)NC[C@H](O)c1ccccc1)[C@H]1C(=O)O[C@H](c3ccccc3)[C@H](c3ccccc3)N1[C@@H]2c1ccc(OCCO)cc1
true (1)

Determine whether this compound has composite z-score no lower than 1: COCCOC(=O)N1C(=O)[C@@]2(c3cc(C#CCC(C(=O)OC)C(=O)OC)ccc31)[C@H](c1ccc(O)cc1)N1[C@H](c3ccccc3)[C@H](c3ccccc3)OC(=O)[C@H]1[C@@H]2C(=O)NC[C@H](O)c1ccccc1
true (1)

###

compounds and their reported z-score
- PROCEDURE_TEXT: basal RPMI8226 mitochondrial membrane potential changes, profiling panel, cell-based, JC-1 fluorescence, 24 h, 100 nL compound (AID 1169); also: test concentration not given here
- CONDITION_NOTES: RPMI8226 myeloma, JC-1 mitochondrial potential fluorescence, higher = more signal
Respond numerically, and do not add a unit to the figure.

// worked examples, z-score included
[N-]=[N+]=NCc1ccccc1[C@@H]1OC(c2ccc(OCCCO)cc2)=N[C@]1(Cc1ccccc1N=[N+]=[N-])C(=O)N1CCCCC1 = -1.19
COCCOC(=O)N1C(=O)[C@@]2(c3cc(C#CCNC(N)=O)ccc31)[C@H](c1ccc(OCCO)cc1)N1[C@H](c3ccccc3)[C@H](c3ccccc3)OC(=O)[C@H]1[C@@H]2C(=O)NC[C@H](O)c1ccccc1 = 0.235

Given COC(=O)C1=CC(CCCO)=CC(C)N(Cc2cccc(OC(F)(F)F)c2)C=C1C(=O)OC (stereo not drawn) , state its recorded z-score.
-0.0402

Consider the compound O=C1[C@@H]2[C@@H](CC(COc3ccccc3)=C3[C@@H](CCc4ccccc4)OB(O)C[C@@H]32)C(=O)N1Cc1ccccc1 and give its measured z-score.
-1.07

Would you mind telling me what z-score value was observed for COC(=O)[C@@]1(Cc2ccc(F)cc2)[C@H]2c3cc(C(=O)N(C)C)n(Cc4c(CO)[nH]cc(C)c4=O)c3C[C@H]2CN1C(=O)c1ccccc1 ?
-0.00352

// returns reported z-score for input CCOC(=O)C1=C[C@@H](C(C)(C)C)N(S(=O)(=O)c2ccc(C)cc2)[C@H]1c1ccccc1
-0.966

What measured z-score goes with NC(=O)[C@H]1[C@@H]2C(=O)O[C@@H](c3ccccc3)[C@@H](c3ccccc3)N2[C@@H](c2ccc(O)cc2)[C@]12C(=O)Nc1ccc(C#CC3=CCCCC3)cc12 ?
-1.16

Give the measured z-score of O=C1C2C=CC(C(O)c3ccco3)N(Nc3ccccc3)C2C(=O)N1c1ccccc1 (stereo not drawn) .
-0.364

Bench note: what z-score did COc1cc2c(cc1O)C(c1cccs1)N(Cc1sc3ccccc3c1Cl)CC2 (stereo not drawn) show?
-0.894

Can you look up the measured z-score of C=C(/C(=C/C[C@@H](OC(C)=O)c1ccc(CO)o1)c1cc(C(=O)OC)ccc1OC)C(C)C for me?
-0.544

What measured z-score goes with COCC(=C=CC[C@@H](O)c1cccc(OCCO)c1)CCO ?
1.15

###

- System: Wnt5a (protein binding on small-molecule microarray)
- PROCEDURE_TEXT: Wnt5a binders on small-molecule microarray, primary screen, biophysical, 635/667 nm fluorescence (AID 1142);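 also: fluorescence read at 667 nm with signal to noise per printed feature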
- CONDITION_NOTES: 635 nm fluorescence, higher = more signal
Outcome: 1 (yes) for composite z-score of at least 0.2; 0 (no) for anything lower.

Recorded results for 5 compounds are shown here.
COC(=O)[C@@]1(Cc2ccccc2CN=[N+]=[N-])N=C(c2ccc(OCCCO)cc2)O[C@H]1c1ccccc1CN=[N+]=[N-] = 1 (yes)
O=C1O[C@H](c2ccccc2)[C@H](c2ccccc2)N2[C@H]1[C@@H](C(=O)Nc1nc3ccccc3s1)[C@]1(C(=O)Nc3ccc(C#CC4=CCCCC4)cc31)[C@H]2c1ccc(O)cc1 = 1 (yes)
COc1ccc(C(=O)Nc2cccc(CN3C(=O)[C@]4(O[C@H](CCn5cc([C@H](O)c6ccccc6)nn5)[C@@H]([Si](C)(C)c5ccc(OC)cc5)[C@@H]4C)c4ccccc43)c2)cc1 = 0 (no)
[N-]=[N+]=NCc1ccccc1[C@@H]1OC(c2ccc(OCCCO)cc2)=N[C@]1(Cc1ccccc1N=[N+]=[N-])C(=O)N1CCCCC1 = 0 (no)
CC=CC(O)C1C=CC2C(=O)NC(=O)C2N1Nc1ccccn1 (stereo not drawn) = 0 (no)

Decide: composite z-score of CC(C)C(CO)N1C(=O)[C@@H]2[C@H]3C(=O)OCC=C[C@H]3OC23C=CCN(C(C)(C)C)C(=O)[C@@H]13 (stereo partly drawn) >= 0.2?
0 (no)

Entry C=CCC(OC(C)=O)[C@@H]1[C@@H](N(Cc2cccc3ccccc23)C(=O)c2cccc3ccccc23)c2cc(OCCCO)ccc2N1C(=O)c1ccc2ccccc2c1 (stereo partly drawn) : is its composite z-score no less than 0.2?
0 (no)

Threshold query (composite z-score >= 0.2) on C=C(CCCC)C(=O)CC[C@H](OC(C)=O)c1ccc(OCCO)cc1
0 (no)
